Consider the following binders and their measured scatter score 0-4, MLP29, 0.004 nM readings.
targetDesc: native mouse MET on living cells (mouse, UniProt P16056 25-1379)
assayExplanation: cell-based or functional assay
measureName: scatter score 0-4, MLP29, 0.004 nM (score)

>>> measurednumber("74C8 chimeric llama-human IgG1 mAb (antibody, V domains shown, llama VH on human IgG1 CH1-CH2-CH3, llama VL on human lambda CL) VH: EVQLVESGGGLVQPGGSLRLSCAASGFTFRNYHMSWVRQVPGKGFEWISDINSAGGSTYYADSVKGRFTISRDNAKNTLYLEMNSLKPEDTALYYCARVNVWGVNYWGKGTLVSVSS VL: QTVVTQEPSLSVSPGGTVTLTCGLSSGSVTTSNYPGWFQQTPGQAPRTLIYNTNSRHSGVPSRFSGSISGNKAALTITGAQPEDEADYYCSLYPGSYTNVFGGGTHLTVL")
0
>>> measurednumber("76H10 chimeric llama-human IgG1 mAb (antibody, V domains shown, llama VH on human IgG1 CH1-CH2-CH3, llama VL on human lambda CL) VH: QLQLVESGGGLVQPGGSLRVSCTASGFTFNTYYMTWVRQAPGKGLEWVSDINSGGGTYYADSVKGRFTISRDNAKNTLYLQMNSLKPEDTALYYCVRVRIWPVGYDYWGQGTQVTVSS VL: QAVVTQEPSLSVSPGGTVTLTCGLSSGSVTTSNYPGWFQQTPGQAPRTLIYNTNNRHSGVPSRFSGSISGNKAALTITGAQPEDEADYYCSLYTGSYTTVFGGGTHLTVL")
0
>>> measurednumber("71D6 chimeric llama-human IgG1 mAb (antibody, V domains shown, llama VH on human IgG1 CH1-CH2-CH3, llama VL on human lambda CL) VH: ELQLVESGGGLVQPGGSLRLSCAASGFTFSSYGMSWVRQAPGKGLEWVSAINSYGGSTSYADSVKGRFTISRDNAKNTLYLQMNSLKPEDTAVYYCAKEVRADLSRYNDYESYDYWGQGTQVTVSS VL: QPVLNQPSALSVTLGQTAKITCQGGSLGARYAHWYQQKPGQAPVLVIYDDDSRPSGIPERFSGSSSGGTATLTISGAQAEDEGDYYCQSADSSGSVFGGGTHLTVL")
1
